test: Volume of distribution at steady state in Sprague-Dawley rat at 2 mg/kg, iv by LC-MS/MS analysis; type: ADME, organism-based; set-up: dose 2 mg/kg, route intravenous; settings: in vivo, read-out: Vdss
MEASURED METRIC: Vd (L/kg)

I: C[C@H](NC(=O)N1CCc2cccnc2[C@H]1c1ccc(C(F)(F)F)c(F)c1)C(F)(F)F
II: C[C@H](NC(=O)N1CCc2ccccc2[C@H]1c1ccc(C(F)(F)F)c(F)c1)C(F)(F)F
Exam item: Of I versus II , which is the one with smaller reported Vd? Write down the label of the entry you select.
Marked response: I

----------
assay: Cmax in Sprague-Dawley rat at 5 mg/kg, po by LC-MS/MS analysis; assay type: ADME, organism-based; parameters: dose 5 mg/kg, route oral; details: in vivo
MEASURED METRIC: Cmax (nM)

C[C@H](NC(=O)N1CCc2ccccc2[C@H]1c1ccc(C(F)(F)F)c(F)c1)C(F)(F)F = 1670

A: C[C@H](NC(=O)N1CCc2cccnc2[C@H]1c1ccc(C(F)(F)F)cc1)C(F)(F)F
B: C[C@H](NC(=O)N1CCc2cccnc2[C@H]1c1ccc(C(F)(F)F)c(F)c1)C(F)(F)F
Exam item: Could you tell me which of A and B has the lower Cmax reading? Indicate which entry you chose by stating its label.
Marked response: A

src = ChEMBL document CHEMBL3232803
